Where these numbers come from: the supplement of paper PMC8671470

System: myeloid leukemia patient primary cells Pat.12
test.description: cell viability (% survival relative to DMSO control); higher = less cytotoxic
assay.conditions: 100 nM; 72 h
measured.quantity: cell viability (%)
Kindly provide the numeric value in % only, without the unit symbol.

{"compound": "Cc1noc2c1-c1ccccc1C(c1ccc(Cl)cc1)=N[C@H]2CC(N)=O [CPI-0610]", "cell viability [%]": 98.4}
{"compound": "Sc1ncnc2nc[nH]c12 [6-mercaptopurine]", "cell viability [%]": 93.6}

Given the compound C[C@H]1O[C@@H](O[C@H]2[C@@H](O)C[C@H](O[C@H]3[C@@H](O)C[C@H](O[C@H]4CC[C@@]5(C)[C@H](CC[C@@H]6[C@@H]5C[C@@H](O)[C@]5(C)[C@@H](C7=CC(=O)OC7)CC[C@]65O)C4)O[C@@H]3C)O[C@@H]2C)C[C@H](O)[C@@H]1O [Digoxin] , write its reported cell viability.
85.5

====

Test system: HL-60
test.description: cell viability (% survival relative to DMSO control); higher = less cytotoxic
assay.conditions: 0.1 µM; 72 h; co-treatment: DMSO vehicle
measured.quantity: cell viability (%)
Unit % implied. Number only.

{"compound": "Oc1cc(Cl)ccc1Oc1ccc(Cl)cc1Cl", "u": "%", "reported.result": 99.7}
{"compound": "CC(C(=O)O)C(=O)O [methylmalonate]", "u": "%", "reported.result": 96.8}

Quickly give me recorded cell viability for C[C@]12CC[C@H](O)CC1=CC[C@@H]1[C@@H]2CC[C@]2(C)C(c3cccnc3)=CC[C@@H]12
93.1

Give the reported value of cell viability for this record: Cc1c(-c2ccccc2)oc2c(C(=O)OCCN3CCCCC3)cccc2c1=O.Cl [Flavoxate]
104

Indicate the recorded cell viability value for this compound: CC(C)Cc1sc(N)nc1-c1ccc(P(=O)(O)O)o1
105

Consider the compound CN(C)c1nc(O)c2[nH]cnc2n1 [2-Dimethylamino-6-hydroxypurine] . State its measured cell viability.
96.5

Look up cell viability of C1CCc2nnc(C34CC5CC(CC(C5)C3)C4)n2CC1 and report it.
98.1

Using known records, supply cell viability for Cc1c2c(=O)n(-c3ccccc3Cl)[nH]c2cc(=O)n1Cc1ccccn1
99.6

Answer with reported cell viability of CCOC(=O)N1c2ccc(C(F)(F)F)cc2[C@@H](N(Cc2cc(C(F)(F)F)cc(C(F)(F)F)c2)C(=O)OC)C[C@H]1CC
98.7

====

IC50 (cell viability) values, listed per item
System: KG-1
assay.conditions: 72 h

{"compound": "O=C(O)CC[C@H](NC(=O)c1ccc([N+](=O)[O-])cc1)C(=O)O [(S)-2-(4-Nitrobenzamido)pentanedioic acid]", "target.of.assay": "KG-1", "reported.result": "> 10 µM"}
{"compound": "NC(=O)c1ncn([C@@H]2O[C@H](CO)[C@@H](O)[C@H]2O)n1", "target.of.assay": "KG-1", "reported.result": "> 10 µM"}
{"compound": "O=C(COc1ccc(C(=O)c2ccccc2)cc1)NC1CCN(Cc2ccccc2)CC1", "target.of.assay": "KG-1", "reported.result": "9.73 µM"}
{"compound": "CCOC(=O)[C@H]1O[C@@H]1C(=O)N[C@@H](CC(C)C)C(=O)NCCC(C)C", "target.of.assay": "KG-1", "reported.result": "> 10 µM"}
{"compound": "O=C(O)c1nn(Cc2ccc(Cl)cc2Cl)c2ccccc12", "target.of.assay": "KG-1", "reported.result": "> 10 µM"}
{"compound": "CCOC(=O)N1c2ccc(C(F)(F)F)cc2[C@@H](N(Cc2cc(C(F)(F)F)cc(C(F)(F)F)c2)C(=O)OC)C[C@H]1CC", "target.of.assay": "KG-1", "reported.result": "9.96 µM"}
{"compound": "[N-]=[N+]=CC(=O)CC[C@H](N)C(=O)O", "target.of.assay": "KG-1", "reported.result": "> 10 µM"}

# context switch: different compound, same IC50 (cell viability)
Name the recorded IC50 (cell viability) of O=C1Oc2ccccc2C(=O)C1CC1C(=O)Oc2ccccc2C1=O (stereo not drawn) , assay system KG-1.
> 10 µM
